Cited source: the supplement of paper PMC5908809

# System: KHYG-1 (IL-2 2.5 ng/mL)
# METHOD DESCRIPTION: percent inhibition of viability; higher = more inhibition;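 note: normalised to DMSO-only wells as negative and benzethonium chloride as positive control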
# CONDITION SUMMARY: 72 h; 0.1 nM
PROPERTY: percent inhibition of viability (%)
Answers are plain numbers, in %.

COMPOUND	TESTED TARGET	TEST RESULT
CNC(=O)c1cc(Oc2ccc(NC(=O)Nc3cc(C(C)(C)C)nn3-c3ccc4ncccc4c3)c(F)c2)ccn1 [Rebastinib] (max concentration tested 1000 nM)	KHYG-1 (IL-2 2.5 ng/mL)	-2.88
Cn1c(=O)c(F)c(Nc2ccc(I)cc2F)c2c(=O)n(C[C@@H](O)CO)cnc21 [TAK-733] (max concentration tested 1000 nM)	KHYG-1 (IL-2 2.5 ng/mL)	4.66
Cc1[nH]c2ccccc2c1CCNCc1ccc(/C=C/C(=O)NO)cc1 [Panobinostat] (max concentration tested 1000 nM)	KHYG-1 (IL-2 2.5 ng/mL)	-7.12

For every item below, please supply its percent inhibition of viability.
1. CCN1CCN(c2ccc(Nc3cc(N(C)C(=O)Nc4c(Cl)c(OC)cc(OC)c4Cl)ncn3)cc2)CC1 [NVP-BGJ398] (max concentration tested 1000 nM)
2. O=C(Nc1cccc(Cl)c1)Nc1ncc(CCNc2ncnc3ccsc23)s1 [SNS-314] (max concentration tested 1000 nM)

Result:
-6.77
-7.32

----------
# System: NK-92 (IL-2 2.5 ng/mL)
# METHOD DESCRIPTION: percent inhibition of viability; higher = more inhibition
# CONDITION SUMMARY: 72 h; 1000 nM
PROPERTY: percent inhibition of viability (%)
Numbers only, in %.

Known results for molecules:
MOLECULE	TESTED TARGET	UNIT STRING	percent inhibition of viability
COC(=O)c1ccc2c(c1)NC(=O)/C2=C(\Nc1ccc(N(C)C(=O)CN2CCN(C)CC2)cc1)c1ccccc1 [Nintedanib] (max concentration tested 10000 nM)	NK-92 (IL-2 2.5 ng/mL)	%	45.4
CCn1c(-c2nonc2N)nc2c(C#CC(C)(C)O)ncc(OC[C@H]3CCCNC3)c21 (max concentration tested 10000 nM)	NK-92 (IL-2 2.5 ng/mL)	%	-1.49

Next up:
Ask: Need percent inhibition of viability, item COc1cc(Nc2ncc3c(n2)-c2ccc(Cl)cc2C(c2c(F)cccc2OC)=NC3)ccc1C(=O)O [Alisertib] (max concentration tested 10000 nM)
Result: 63.6

----------
# Tested on: IMC-1 (IL-2 20 ng/mL)
# METHOD DESCRIPTION: percent inhibition of viability; higher = more inhibition
# CONDITION SUMMARY: 72 h; 100 nM
PROPERTY: percent inhibition of viability (%)
One number for each entry, in %.

Worked cases, answers included:
COMPOUND	PROPERTY	TEST RESULT
CCc1c2c(nc3ccc(OC(=O)N4CCC(N5CCCCC5)CC4)cc13)-c1cc3c(c(=O)n1C2)COC(=O)[C@]3(O)CC [Irinotecan] (max concentration tested 10000 nM)	percent inhibition of viability	0
COc1cc2c(Nc3ccc(Cl)c(Cl)c3F)ncnc2cc1OC[C@@H]1C[C@@H]2CN(C)C[C@@H]2C1 [XL-647] (max concentration tested 1000 nM)	percent inhibition of viability	-6.58
CCn1c(-c2nonc2N)nc2cnc(Oc3cccc(NC(=O)c4ccc(OCCN5CCOCC5)cc4)c3)cc21 (max concentration tested 10000 nM)	percent inhibition of viability	6.95
CCOC(=O)CCNc1cc(N2CCc3ccccc3CC2)nc(-c2ccccn2)n1 [GSK-J4] (max concentration tested 100000 nM)	percent inhibition of viability	-2.96
CCN(CC)C(=S)SSC(=S)N(CC)CC [Disulfiram] (max concentration tested 100000 nM)	percent inhibition of viability	2.91

Ask: Need percent inhibition of viability of Cn1cc(C2=Nc3cc(NC(=O)C(N)C4CCCCC4)cc4c3C2=CNNC4=O)cn1 (stereo unspecified) (max concentration tested 10000 nM) , thanks.
Result: 7.25

----------
# Test system: DERL-7 (IL-2 2.5 ng/mL)
# METHOD DESCRIPTION: percent inhibition of viability; higher = more inhibition
# CONDITION SUMMARY: 72 h; 1000 nM
Assign percent inhibition of viability to each entry below.
One number for each entry, in %.

Here are 4 molecules together with their reported answers.
MOLECULE	TEST RESULT
Cn1c(=O)c(F)c(Nc2ccc(I)cc2F)c2c(=O)n(C[C@@H](O)CO)cnc21 [TAK-733] (max concentration tested 1000 nM)	47.2
C[C@@H]1C[C@H]2O[C@@H]2/C=C\C=C\C(=O)Cc2c(Cl)c(O)cc(O)c2C(=O)O1 [Radicicol] (max concentration tested 10000 nM)	100
Cn1cc(C2=Nc3cc(NC(=O)C(N)C4CCCCC4)cc4c3C2=CNNC4=O)cn1 (configuration not stated) (max concentration tested 10000 nM)	48.3
C[C@H]1C[C@@H]2[C@H]([C@@H](O)C[C@@]3(C)[C@H]2CC[C@]3(O)C(=O)CO)[C@@]2(C)C=CC(=O)C=C12 [Methylprednisolone] (max concentration tested 10000 nM)	100

Value sought for every listed molecule: percent inhibition of viability.
1. CS(=O)(=O)CCNCc1ccc(-c2ccc3ncnc(Nc4ccc(OCc5cccc(F)c5)c(Cl)c4)c3c2)o1 [Lapatinib] (max concentration tested 1000 nM)
2. C=CC[C@@H]1/C=C(\C)C[C@H](C)C[C@H](OC)[C@H]2O[C@@](O)(C(=O)C(=O)N3CCCC[C@H]3C(=O)O[C@H](/C(C)=C/[C@@H]3CC[C@@H](O)[C@H](OC)C3)[C@H](C)[C@@H](O)CC1=O)[C@H](C)C[C@@H]2OC [Tacrolimus] (max concentration tested 10000 nM)
3. CC1=C(/C=C/C(C)=C/C=C/C(C)=C/C(=O)O)C(C)(C)CCC1 [Tretinoin] (max concentration tested 10000 nM)

Result:
[9.64, -6.35, -1.93]

----------
# Test system: SNK-6 (IL-2 2.5 ng/mL)
# METHOD DESCRIPTION: percent inhibition of viability; higher = more inhibition
# CONDITION SUMMARY: 72 h; 100 nM
PROPERTY: percent inhibition of viability (%)
Give bare numbers, in %.

Record excerpt, results attached:
MOLECULE	TESTED TARGET	UNIT STRING	percent inhibition of viability
CN1CC[C@H](c2c(O)cc(O)c3c(=O)cc(-c4ccccc4Cl)oc23)[C@H](O)C1 [Alvocidib] (max concentration tested 10000 nM)	SNK-6 (IL-2 2.5 ng/mL)	%	40
OC[C@H]1O[C@@H](n2cnc3c2N=CNC[C@H]3O)C[C@@H]1O [Pentostatin] (max concentration tested 10000 nM)	SNK-6 (IL-2 2.5 ng/mL)	%	8.33

Give percent inhibition of viability for each listed item.
1. COc1cc(Nc2ncc(F)c(Nc3ccc4c(n3)NC(=O)C(C)(C)O4)n2)cc(OC)c1OC [Tamatinib] (max concentration tested 10000 nM)
2. Cn1cc(C2=Nc3cc(NC(=O)C(N)C4CCCCC4)cc4c3C2=CNNC4=O)cn1 (stereo unspecified) (max concentration tested 10000 nM)
3. CN(C)c1nc(N(C)C)nc(N(C)C)n1 [Altretamine] (max concentration tested 10000 nM)

Result:
-0.26
25.4
-0.39

----------
# Tested on: KHYG-1 (IL-2 2.5 ng/mL)
# METHOD DESCRIPTION: percent inhibition of viability; higher = more inhibition
# CONDITION SUMMARY: 72 h; 1 nM
PROPERTY: percent inhibition of viability

MOLECULE	PROPERTY	TEST RESULT
CN(C)C/C=C/C(=O)Nc1cc2c(Nc3ccc(F)c(Cl)c3)ncnc2cc1O[C@H]1CCOC1 [Afatinib] (max concentration tested 1000 nM)	percent inhibition of viability	0.47%
O=C(Nc1cccc(Cl)c1)Nc1ncc(CCNc2ncnc3ccsc23)s1 [SNS-314] (max concentration tested 1000 nM)	percent inhibition of viability	-4.71%
CN1CC[C@H](c2c(O)cc(O)c3c(=O)cc(-c4ccccc4Cl)oc23)[C@H](O)C1 [Alvocidib] (max concentration tested 10000 nM)	percent inhibition of viability	3.43%

Provide each entry's percent inhibition of viability from the list below.
1. Cn1c(=O)c(F)c(Nc2ccc(I)cc2F)c2c(=O)n(C[C@@H](O)CO)cnc21 [TAK-733] (max concentration tested 1000 nM)
2. O=C(O)c1ccc(Nc2ncc3c(n2)-c2ccc(Cl)cc2C(c2c(F)cccc2F)=NC3)cc1 [MLN-8054] (max concentration tested 10000 nM)
3. COc1cccc2c1C(=O)c1c(O)c3c(c(O)c1C2=O)C[C@@](O)(C(C)=O)C[C@@H]3O[C@H]1C[C@H](N)[C@H](O)[C@H](C)O1 [Daunorubicin] (max concentration tested 1000 nM)

Result:
1. 9.31%
2. 4.03%
3. -4.06%
